Listed here are compounds together with their documented growth inhibition by drug alone.
System: RIVA
test-protocol: growth inhibition by drug alone (1 - RLU/untreated control) (fraction); higher = stronger inhibition
condition-description: 10 nM; time (day): 3; 177Lu-lilotomab satetraxetan 0 ug/ml
Structures can show the parent of a compound that is named as a salt.

compound	subject-of-test	growth inhibition by drug alone
CN(C)C[C@@H]1CCn2cc(c3ccccc32)C2=C(C(=O)NC2=O)c2cn(c3ccccc23)CCO1	RIVA	0.0588
CC(C)[C@H](C(=O)Nc1ccc(C(=O)NO)cc1)c1ccccc1	RIVA	-0.0258
CN(C)Cc1ccc(-c2nc3cccc4c3n2CCNC4=O)cc1	RIVA	-0.0131
CCOc1ccn(-c2ccc(F)cc2)c(=O)c1C(=O)Nc1ccc(Oc2ccnc(N)c2Cl)c(F)c1	RIVA	0.0958
Nc1nccc(-c2ccc3noc(-c4ccc(Cl)cc4)c3c2)n1 [PIM-1 Inhibitor 2]	RIVA	0.115
CN(C)CCOc1ccc(/C(=C(/CCCl)c2ccccc2)c2ccccc2)cc1 [Toremifene Citrate (Fareston, Acapodene)]	RIVA	0.218
Fc1cc(-c2cccc3ncc(-c4cnn(C5CCNCC5)c4)nc23)cc(F)c1CN1CCOCC1	RIVA	0.0385
O=c1[nH]cc(F)c(=O)[nH]1 [Adrucil (Fluorouracil)]	RIVA	-0.0691
Cc1oc(S(=O)(=O)N2CCCCC2)cc1NC(=O)Nc1ccccc1	RIVA	0.0245
CC1(CN2CCC(n3c(=O)[nH]c4ccccc43)CC2)OCc2ccccc2-n2cccc21 (stereo not given)	RIVA	-0.0853
COc1c(C)cnc(Cn2cnc3c(Cl)nc(N)nc32)c1C	RIVA	-0.00355
O=C(O[C@@H]1Cc2c(O)cc(O)cc2O[C@@H]1c1cc(O)c(O)c(O)c1)c1cc(O)c(O)c(O)c1 [(-)-Epigallocatechin gallate]	RIVA	-0.0443
Cc1ccc(-c2cc(C(F)(F)F)nn2-c2ccc(S(N)(=O)=O)cc2)cc1 [Celecoxib]	RIVA	-0.101
CC(C=CC(=O)NO)=CC(C)C(=O)c1ccc(N(C)C)cc1 (stereo not given) [Trichostatin A (TSA)]	RIVA	0.0108
Cn1c(=O)c(F)c(Nc2ccc(I)cc2F)c2c(=O)n(C[C@@H](O)CO)cnc21	RIVA	0.0885
Nc1ccccc1NC(=O)c1ccc(CNC(=O)OCc2cccnc2)cc1 [Entinostat (MS-275, SNDX-275)]	RIVA	-0.0286
CCc1ccc(CCOc2ccc(CC3SC(=O)NC3=O)cc2)nc1 (stereo not given) [Pioglitazone (Actos)]	RIVA	-0.15
O=C(O)c1ccc2cc(-c3ccc(O)c(C45CC6CC(CC(C6)C4)C5)c3)ccc2c1	RIVA	0.00625
CN(C)c1ccccc1CN1CCCN(Cc2ccccc2N(C)C)C1c1ccncc1	RIVA	-0.0275
CC[C@@H]1/C=C(\C)C[C@H](C)C[C@H](OC)[C@H]2O[C@@](O)(C(=O)C(=O)N3CCCC[C@H]3C(=O)O[C@H](/C(C)=C/[C@@H]3CC[C@H](Cl)[C@H](OC)C3)[C@H](C)[C@@H](O)CC1=O)[C@H](C)C[C@@H]2OC [Pimecrolimus]	RIVA	0.339
CC(C)(C)c1[nH]cnc1/C=c1\[nH]c(=O)/c(=C/c2ccccc2)[nH]c1=O [NPI-2358 (Plinabulin)]	RIVA	0.00478
C[C@@H]1C[C@H]2[C@@H]3CCC4=CC(=O)C=C[C@]4(C)[C@@]3(F)[C@@H](O)C[C@]2(C)[C@@]1(O)C(=O)CO [Dexamethasone]	RIVA	0.0365
c1ccc2c(CCNc3ccc(Nc4ccncc4)cc3)c[nH]c2c1	RIVA	-0.0529
CCN(CC)CCCCNc1ncc2cc(-c3cc(OC)cc(OC)c3)c(NC(=O)NC(C)(C)C)nc2n1	RIVA	-0.21
Nc1nc(Nc2ccc(S(N)(=O)=O)cc2)nn1C(=O)c1c(F)cccc1F	RIVA	0.09
Cn1cnc([N+](=O)[O-])c1Sc1ncnc2[nH]cnc12 [Azathioprine (Azasan, Imuran)]	RIVA	-0.0287
OCCn1cc(-c2cnc3nnn(Cc4ccc5ncccc5c4)c3n2)cn1	RIVA	0.0383
S=C(NCc1ccc2c(c1)OCO2)N1CCN(c2ncnc3c2oc2ccccc23)CC1 [Amuvatinib (MP-470)]	RIVA	0.0683
N#Cc1ccc(C(c2ccc(C#N)cc2)n2cncn2)cc1 [Letrozole]	RIVA	-0.194
Cc1nc(Nc2ncc(C(=O)Nc3c(C)cccc3Cl)s2)cc(N2CCN(CCO)CC2)n1	RIVA	0.376
Cc1cccc(-c2nn3c(c2-c2ccnc4ccc(C(N)=O)cc24)CCC3)n1	RIVA	-0.233
O=C(O)c1ccc(-c2c[nH]c3ncc(-c4ccccc4)cc23)cc1C1CCCC1	RIVA	-0.0813
CC[C@H](Nc1ncnc2[nH]cnc12)c1nc2cccc(F)c2c(=O)n1-c1ccccc1	RIVA	-0.102
COc1cc2ncnc(Nc3cccc(Br)c3)c2cc1OC	RIVA	-0.0227
CN(C)CCCCSC(=N)N	RIVA	-0.0402
